# experimentNotes: chemical genetic growth profiling, strain panel (AID 1159580);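 also: tested at 20 µM; growth read once vehicle control cultures reached saturation at 30 °C; 1 = growth at the plate median or of vehicle wells; lower values mean less growth of the strain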
# experimentalConditions: S. cerevisiae deletion strains, growth OD, locus YMR223W, strain ubp8, active compounds read low
Hit rate of the full screen: of about 5,500 compounds, about 2,000 (36%) were called active. Roughly 18% stayed inconclusive and do not appear here. This is one part of the list.
measuredMetric: normalized growth
Just the number.

> print(dat)
                                   compound  measurement
1  CC1=C(/C=C/C(C)=C/C=C/C(C)=C/C=C/C=C(C)/C=C/C=C(C)/C=C/C23OC2(C)CC(O)CC3(C)C)C(C)(C)CC(O)C1 (stereo not given)         1.01
2                              CNCCc1ccccn1         1.01
3  N=c1ccn2c(n1)O[C@@H]1C2O[C@H](CO)[C@H]1O (stereo not given in full)         1.02

In plain terms, COc1ccc2c(c1OC)C(=O)O[C@H]2[C@H]1c2cc3c(cc2CCN1C)OCO3 has a documented normalized growth of 1

In plain terms, CC1=C(/C=C/C(C)=C/C=C/C(C)=C/C=C/C=C(C)/C=C/C=C(C)/C=C/C2=C(C)C(=O)C(O)CC2(C)C)C(C)(C)CC(O)C1=O (stereo not given) has a documented normalized growth of 0.997

In plain terms, O=C(O)c1c2ccccc2cc2ccccc12 has a documented normalized growth of 0.962

In plain terms, O=C(O)c1cc2ccccc2c(Cc2c(O)c(C(=O)O)cc3ccccc23)c1O has a documented normalized growth of 1

In plain terms, O=C1C=CC(=C(c2ccc(O)cc2)c2ccc(O)cc2)C=C1 has a documented normalized growth of 0.982

In plain terms, CN1CCC(=C2c3ccccc3CC(=O)c3sccc32)CC1 has a documented normalized growth of 0.993

In plain terms, COc1ccc2c(c1OC)C(=O)O[C@@H]2[C@H]1c2cc3c(cc2CCN1C)OCO3 has a documented normalized growth of 1.03

---

# experimentNotes: chemical genetic growth profiling, strain panel (AID 1159580)
# experimentalConditions: S. cerevisiae deletion strains, growth OD, locus YEL037C, strain rad23
Out of some 5,500 compounds screened, about 2,000 (36%) were called active. Roughly 18% stayed inconclusive and do not appear here. Cut-off read from the data, not from the text of the source: active = normalized growth mostly below about 0.91 (no sharp cut-off); inconclusive = no clear call, values can overlap the other calls; inactive = mostly above about 0.92. This is one part of the list.
Give your call using only these classes: active, inactive

Example entries and their recorded answers appear below.
> print(dat)
                                   compound       cat
1  COc1cc2c(cc1OC)[C@@H]1C(=O)c3ccc(O)c(CC=C(C)C)c3O[C@@H]1CO2  inactive
2  COc1ccc2c(c1)O[C@@H]1COc3cc(OC)c(OC)cc3[C@@H]1C2=O  inactive
3  NC(=O)C(c1ccccc1)(c1ccccc1)C1CCN(CCc2ccc3c(c2)CCO3)C1 (centres undefined)  inactive
4               CCCCCCCCCCCCCCCC[N+](C)(C)C    active

Query :: // param item: O=C(O)C1(O)C[C@@H](O)C(O)[C@H](O)C1 (some centres undefined) ; yields the recorded call
Result :: inactive

Query :: // param item: COc1cc2c(cc1OC)[C@@H]1C(=O)c3ccc4oc(C(C)C)cc4c3O[C@@H]1CO2 ; yields the recorded call
Result :: inactive

Query :: // param item: COc1cc2c(cc1OC)[C@@H]1C(=O)c3ccc(OC)c(CC=C(C)C)c3O[C@@H]1CO2 ; yields the recorded call
Result :: inactive

Query :: // param item: C=Cc1c2[nH]c(c1C)C=c1[nH]c(c(C)c1C=C)=CC1N=C(C=c3[nH]c(c(C)c3CCC(=O)O)=C2)C(CCC(=O)O)=C1C (centres undefined) ; yields the recorded call
Result :: inactive

Query :: // param item: COc1cc2c(cc1OC)Cc1cc(OC)c(OC)cc1Cc1cc(OC)c(OC)cc1C2 ; yields the recorded call
Result :: inactive

---

Listing: normalized growth of selected compounds
# experimentNotes: chemical genetic growth profiling, strain panel (AID 1159580);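 also: tested at 20 µM; growth read once vehicle control cultures reached saturation at 30 °C; 1 = growth at the plate median or of vehicle wells; lower values mean less growth of the strain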
# experimentalConditions: S. cerevisiae deletion strains, growth OD, locus YNL248C, strain rpa49, active compounds read low
Hit rate of the full screen: of about 5,500 compounds, about 2,000 (36%) were called active. About 18% were inconclusive and are not listed. This is one part of the list.
Just the number.

> print(dat)
                                   compound     measuredmetric  measurement
1                     COP(=O)(OC)OC=C(Cl)Cl  normalized growth        0.994
2  COc1ccc2c(c1OC)C(=O)O[C@H]2[C@H]1c2cc3c(cc2CCN1C)OCO3  normalized growth        0.988
3  CC(=O)OCC(=O)[C@H]1CCC2C3CCC4=CC(=O)CC[C@]4(C)C3CC[C@@]21C (stereo not given in full)  normalized growth        0.945

In plain terms, CCOC(=O)c1c(C)cc(O)c(C=O)c1O has a documented normalized growth of 0.635

---

# experimentNotes: chemical genetic growth profiling, strain panel (AID 1159580);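 also: tested at 20 µM; growth read once vehicle control cultures reached saturation at 30 °C; 1 = growth at the plate median or of vehicle wells; lower values mean less growth of the strain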
# experimentalConditions: S. cerevisiae deletion strains, growth OD, locus YLR357W, strain rsc2
Screen size: about 5,500 compounds; about 2,000 (36%) were called active. Another 18% or so got no clear call; they are omitted. No stated cut-off is given here; in the data, active means normalized growth mostly below about 0.91 (no sharp cut-off); inconclusive means no clear call, values can overlap the other calls; inactive means mostly above about 0.92. The list shows a part of the results.
Give your call using only these classes: active, inactive

> print(dat)
                                   compound       cat
1  O=C(O)c1cc2ccccc2c(Cc2c(O)c(C(=O)O)cc3ccccc23)c1O  inactive
2  C[C@H]1CC2C([C@@H](O)C[C@@]3(C)C2CC[C@]3(O)C(=O)CO)[C@@]2(C)C=CC(=O)C=C12 (some centres not stated)  inactive
3  COc1cc(O)c(C(=O)/C=C/c2ccc(OC)c(O)c2)c(OC)c1  inactive
4  COc1cc(O)c(C(=O)/C=C/c2ccc(O)c(OC)c2)c(OC)c1  inactive
5  CCN(CC)CCCC(C)Nc1c2ccc(Cl)cc2nc2ccc(OC)cc12 (configuration not stated)  inactive
6                  Cc1cc(O)c(C)c(O)c1C(=O)O  inactive

Query :: // param item: O=C(O)c1cc2ccccc2[nH]1 ; yields the recorded call
Result :: inactive

Query :: // param item: CCN(CC)CCCC(C)Nc1ccnc2cc(Cl)ccc12 (configuration not stated) ; yields the recorded call
Result :: inactive

Query :: // param item: COc1cc(/C=C/C(=O)/C=C(O)/C=C/c2ccc(O)c(OC)c2)ccc1O ; yields the recorded call
Result :: active

Query :: // param item: CCN(CCO)CCCC(C)Nc1ccnc2cc(Cl)ccc12 (configuration not stated) ; yields the recorded call
Result :: inactive

Query :: // param item: CCOC(=O)c1c(C)cc(O)c(C=O)c1O ; yields the recorded call
Result :: active

Query :: // param item: Cc1cc(O)c(C=O)c(O)c1C(=O)O ; yields the recorded call
Result :: inactive

---

# experimentNotes: chemical genetic growth profiling, strain panel (AID 1159580);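 also: tested at 20 µM; growth read once vehicle control cultures reached saturation at 30 °C; 1 = growth at the plate median or of vehicle wells; lower values mean less growth of the strain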
# experimentalConditions: S. cerevisiae deletion strains, growth OD, locus YMR223W, strain ubp8, active compounds read low
Hit rate of the full screen: of about 5,500 compounds, about 2,000 (36%) were called active. Roughly 18% stayed inconclusive and do not appear here. Some of the results follow.
Listing: normalized growth of selected compounds
Just the number.

compound	measuredMetric	measurement
CCOC(=O)C(=O)C1(C(=O)OCC)Oc2cc(OC)cc(OC)c2C(=O)C1c1ccccc1 (configuration not stated)	normalized growth	0.949
CN(C)C(=S)SSC(=S)N(C)C	normalized growth	0.062
CC(N)C(=O)OC(C)(C)Cc1ccc(Cl)cc1 (configuration not stated)	normalized growth	0.94
CC1CC2C3CCC4=CC(=O)C=C[C@]4(C)[C@@]3(F)[C@@H](O)C[C@]2(C)[C@@]1(O)C(=O)CO (some centres not stated)	normalized growth	0.977
CN1CCCN=C1COC(=O)C(O)(c1ccccc1)C1CCCCC1 (configuration not stated)	normalized growth	1

In plain terms, CC(C(=O)O)c1ccc(-c2ccccc2)c(F)c1 (configuration not stated) has a documented normalized growth of 1.02

In plain terms, CC(=O)N[C@@H](CC(C)C)C(=O)O has a documented normalized growth of 0.968

In plain terms, CCC(C)C(OC(C)=O)C(=O)OC1C(O)C2C3(C)C=CC(=O)C(C)(C)C3CC(OC(=O)C(O)C(C)C)C2(C)C23OC2CC(c2ccoc2)C13C (configuration not stated) has a documented normalized growth of 0.983

In plain terms, COP(=O)(OC)OC=C(Cl)Cl has a documented normalized growth of 0.985

In plain terms, COc1ccc2cc([C@H](C)C(=O)O)ccc2c1 has a documented normalized growth of 0.963

In plain terms, CCN(CCO)CCCC(C)Nc1ccnc2cc(Cl)ccc12 (configuration not stated) has a documented normalized growth of 1.02

In plain terms, CCOC(=O)[C@H](CCc1ccccc1)N[C@H]1CCc2ccccc2N(CC(=O)O)C1=O has a documented normalized growth of 0.993

In plain terms, C=Cc1c2[nH]c(c1C)C=c1[nH]c(c(C)c1C=C)=CC1N=C(C=c3[nH]c(c(C)c3CCC(=O)O)=C2)C(CCC(=O)O)=C1C (configuration not stated) has a documented normalized growth of 0.972

In plain terms, COc1ccc2c(c1)OCc1c-2oc2cc(OC)ccc12 has a documented normalized growth of 1.01

In plain terms, CCC(=O)O[C@H]1[C@H](O[C@@H]2[C@@H](C)[C@H](O[C@H]3C[C@@](C)(OC)[C@@H](O)[C@H](C)O3)[C@@H](C)C(=O)O[C@H](CC)[C@@](C)(O)[C@H](O)[C@@H](C)C(=O)[C@H](C)C[C@@]2(C)O)O[C@H](C)C[C@@H]1N(C)C has a documented normalized growth of 0.982

In plain terms, O=C(O)C1(O)C[C@@H](O)C(O)[C@H](O)C1 (some centres not stated) has a documented normalized growth of 1
